- Assayed System: T1, human ASGR-1 (human, UniProt P07306 1-291)
- T1 construct: Stably expressed on CHO-S cells (CHO-S:huASGR-1); The method text says human or mouse ASGR-1 cells were used; also called huASGR-1; hASGR-1
- T1 sequence: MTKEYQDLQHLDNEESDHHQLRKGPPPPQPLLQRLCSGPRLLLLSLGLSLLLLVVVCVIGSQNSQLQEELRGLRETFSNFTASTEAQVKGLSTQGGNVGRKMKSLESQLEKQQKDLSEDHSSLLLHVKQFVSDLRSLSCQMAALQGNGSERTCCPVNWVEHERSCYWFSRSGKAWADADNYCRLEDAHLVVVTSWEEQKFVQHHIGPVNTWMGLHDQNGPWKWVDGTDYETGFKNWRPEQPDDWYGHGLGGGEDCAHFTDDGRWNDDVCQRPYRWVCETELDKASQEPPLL
- Test Method Notes: FACS ligand blocking on CHO-S ASGR-1 cells; competitor biotinylated asialofetuin
Experimental Endpoint: % Inhibition (%)

Binder	Measured
25A4 (antibody, V domains shown) VH: QVLLVQSGAEVKRPGASVKVSCKASGYTFTNYDINWVRQATGQGLEWMGWMYPNSGNTGYAQKFQGRVTMTRNTSISTAYMELSSLRSEDTAVYYCASSSGWYYFDYWGQGTLVTVSS VL: DIVMTQFPDSLAVSLGERATIKCKSSQSVLYSSHNNNYLAWYQQKPGQPPKLLLYWASTRESGVPDRFSGSGSGTEFTLTISSLEAEDVAVYYCQQYYSTPPTFGQGTKVEIK	99
191G1 (antibody, V domains shown) VH: QVQLVESGGGVVQPGRSLRLSCAASGFTFSSYGMHWVRQAPGKGLEWVAVIWYDGSNEHYADSVKGRFTISRDNSKNTLYLQMNSLRAEDTAVYYCARDRGVGYYGLDVWGQGTTVTVSS VL: DIQMTQSPSSLSASVGDRVTITCRASQGISNYLAWFQQKPGKAPKSLIYAASSLQSGVPSKFSGSGSGTDFTLTISSLQPEDFATYYCQHYLTYPLTFGGGTKVEIK	99
197G3 (antibody, V domains shown) VH: QVQLVESGGGVVQPGRSLRLSCVASGFTFSSHGMHWVRQAPGKGLEWVAVIWYDGSNKNYADSVKGRFTISRDNSKNTLYLQMNSLRAEDTAVYYCARDPSVGYDGMDVWGQGTTVTVSS VL: DIQMTQSPSSLSASVGDRVTITCRASQGIGNHLAWFQQKPGKAPKSLIYAASSLQSGVPSKFSGSRSGTDFSLTISSLQPEDFATYYCQQYSNYPVTFGPGTKVDIK	90
202A3 (antibody, V domains shown) VH: QVQLEQSGAEVKKPGASVKVSCKASGYTFTSYDINWVRQATGQGLEWLGWMNPKRGNTGYAQKFQGRVTMTRNTSISTAHMELSSLRSEDTAVYYCARGRYSREDYYYYYDMDVWGQGTTVTVSS VL: DIQMSQSPSSLSASVGDRVTITCRASQGIRNDLGWYQQKPGKAPKRLICAASRLQSGVPSRFSGSGSGTEFTLTISSLQPEDFAIYYCLQHHDYPFTFGPGTKVDIK	98
22G5 (antibody, V domains shown) VH: EVQLLESGGGLVQPGGSLRLSCAASGFTFSSYAMNWVRQAPGMGLEWVSVISRSGGYTYYADSVKGRFTISRDNSKNTLYLQMNSLRAEDTAVYYCASRLAVAGSEAFDIWGQGTLVTVSS VL: DIQMTQSPSSLSASVGDRVTITCRASQNISSYLNWYQQKQGKAPKLLIYAASSLQNGVPSRFSGRGSGTDFTLTISSLQPEDFATYYCQQSYRTPLFTFGPGTKVDFK	99
